test: in vitro; design: species or system CCD841, HEK293; details: human, hb2 cells, read-out: HB-2 Cells Viability (%)
READOUT TYPE: viability at 48 h, 10 µM

Need viability at 48 h, 10 µM of C=CC(=O)NC1CCCN(c2cnn(C)c2)C1 (stereo not drawn) , thanks.
99.5%

Which viability at 48 h, 10 µM reading was recorded for the compound C=CC(=O)N1CCC2C(CCCN2Cc2ccccc2)C1 (stereo not drawn) ?
102%

Need viability at 48 h, 10 µM of "C=CC(=O)N1CCC(S(=O)(=O)C(C)C)CC1" , thanks.
98.6%

Recorded viability at 48 h, 10 µM for "O=C(CCl)Nc1nc2c(s1)CCC2" , please?
42.3%

Please give the measured viability at 48 h, 10 µM for this compound: "C=CC(=O)NCc1ccon1"
98.9%

Using the record for "CC(C)(C)C(=O)NC(=O)CCl" , report its viability at 48 h, 10 µM.
105%

More entries:
Would you mind telling me what viability at 48 h, 10 µM value was observed for "C=CC(=O)Nc1ccc(F)c(F)c1" ?
104%

For the compound "O=C(CCl)Nc1cc(Cl)ccc1Cl" , what viability at 48 h, 10 µM is on record?
40.7%

Bench note: what viability at 48 h, 10 µM did "Cl.O=C(CCl)N1CCN(CC(=O)N2CCCC2)CC1" show?
98.1%

Entry under review: "Cc1csc(N(C(=O)CCl)c2ccccc2)n1" . Reported viability at 48 h, 10 µM?
12.6%

What value of viability at 48 h, 10 µM has been recorded for this entry: "C=CC(=O)N1CCCN(C(=O)c2cc(Cl)cn2C)CC1"
105%

Quick check: viability at 48 h, 10 µM of C=CC(=O)N1CCCC2(CCS(=O)(=O)C2)C1 (stereo not drawn) ?
107%

// returns reported viability at 48 h, 10 µM for input "O=C(CCl)N1CCc2sccc2C1"
9.2%

Request the reported viability at 48 h, 10 µM associated with "C=CC(=O)N1CC=C(C(F)(F)F)CC1"
103%
